target: CYP2D6 (Homo sapiens); details: microsomes
pIC50: −log10 of the molar value. Structures can show the parent of a compound that is named as a salt.
A collection of compounds and their measured pIC50
measuredParameter: pIC50

compound: CC(C)NCC(O)COc1cccc2ccccc12 (stereo not drawn) [Propranolol hydrochloride, reference compound]
measuredParameter: pIC50
quantitativeResult: 5.12

compound: COCCOCCOCCOCCN(C)CCOC(c1ccccc1)c1ccccc1 [mPEG4-N-diphenhydramine]
measuredParameter: pIC50
quantitativeResult: 5.04

compound: COCCOCCOCCN(C)CCOC(c1ccccc1)c1ccccc1 [mPEG3-N-diphenhydramine]
measuredParameter: pIC50
quantitativeResult: 5.59

###

target: UniProt P08684; conditions: microsomes
Counter-ions that a name gives are not always drawn.
measuredParameter: IC50

molecule: COCCOCCOCCOCCOCCOCCOCCNCCCN1c2ccccc2CCc2ccccc21
result: 9.51 µM
--
molecule: CC(C)NCC(O)COc1cccc2ccccc12 (stereo not drawn) [Propranolol hydrochloride, reference compound]
result: > 25 µM
--
molecule: COCCOCCOCCN(C)CCOC(c1ccccc1)c1ccccc1 [mPEG3-N-diphenhydramine]
result: 16.4 µM
--
molecule: COCCOCCOCCOCCN(C)CCOC(c1ccccc1)c1ccccc1 [mPEG4-N-diphenhydramine]
result: 13.1 µM
--
molecule: COCCOCCOCCOCCOCCOCCOCCN1CCN(C(c2ccccc2)c2ccc(Cl)cc2)CC1 (stereo not drawn) [PEG-5-HZ, mPEG5-hydroxyzine]
result: 7.9 µM
--
molecule: COCCOCCOCCNCCCN1c2ccccc2CCc2ccccc21
result: 17.9 µM

###

target: CYP3A4 (Homo sapiens); details: read-out: CYP3A4 Inhibition of testosterone 6β-hydroxylation IC50; human liver microsomes 0.1 mg/mL, test compound 0.1-25 μM, 5 minutes
pIC50: −log10 of the molar value.
Each entry below carries its recorded pIC50.
measuredParameter: pIC50

compound: COCCOCCOCCN(C)CCOC(c1ccccc1)c1ccccc1 [mPEG3-N-diphenhydramine]
result: < 4.60
//
compound: COCCOCCOCCOCCOCCOCCOCCN1CCN(C(c2ccccc2)c2ccc(Cl)cc2)CC1 (centres unmarked) [PEG-5-HZ, mPEG5-hydroxyzine]
result: < 4.60
//
compound: COCCOCCOCCOCCN(C)CCOC(c1ccccc1)c1ccccc1 [mPEG4-N-diphenhydramine]
result: < 4.60
//
compound: COCCOCCOCCOCCOCCOCCOCCNCCCN1c2ccccc2CCc2ccccc21
result: < 4.60
//
compound: COCCOCCOCCNCCCN1c2ccccc2CCc2ccccc21
result: < 4.60

###

target: UniProt:P08684; conditions: microsomes
Counter-ions that a name gives are not always drawn.

compound: CC(C)NCC(O)COc1cccc2ccccc12 (stereo not shown) [Propranolol hydrochloride, reference compound]
tgt: UniProt:P08684
measurementUnits: µM
IC50: 13.1

###

target: CYP2D6 (Homo sapiens, UniProt P10635); conditions: read-out: CYP2D6 Inhibition of dextromethorphan O-demethylation IC50; human liver microsomes 0.1 mg/mL, test compound 0.1-25 μM, 5 minutes
Sequence (P10635 whole entry): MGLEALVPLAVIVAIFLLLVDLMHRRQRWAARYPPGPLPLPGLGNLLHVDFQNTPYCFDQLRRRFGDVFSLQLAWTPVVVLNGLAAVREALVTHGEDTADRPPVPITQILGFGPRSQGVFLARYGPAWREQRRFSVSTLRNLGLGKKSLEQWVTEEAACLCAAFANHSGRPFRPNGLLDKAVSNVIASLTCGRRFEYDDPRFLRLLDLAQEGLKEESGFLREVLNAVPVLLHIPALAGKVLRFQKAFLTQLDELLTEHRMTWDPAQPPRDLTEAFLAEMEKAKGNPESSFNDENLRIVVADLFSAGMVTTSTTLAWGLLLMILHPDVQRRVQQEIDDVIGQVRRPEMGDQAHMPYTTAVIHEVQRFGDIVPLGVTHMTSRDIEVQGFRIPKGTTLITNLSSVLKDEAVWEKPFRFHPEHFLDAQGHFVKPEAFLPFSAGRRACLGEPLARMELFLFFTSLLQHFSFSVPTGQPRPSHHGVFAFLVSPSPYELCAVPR
measuredParameter: IC50 (µM)

molecule: COCCOCCOCCOCCOCCN1CCN(C(c2ccccc2)c2ccc(Cl)cc2)CC1 (stereo not shown) [PEG-3-HZ, mPEG3-hydroxyzine]
measuredParameter: IC50
measurementUnits: µM
boundType: =
quantitativeResult: 9.7
//
molecule: COCCOCCOCCOCCOCCOCCOCCNCCCN1c2ccccc2CCc2ccccc21
measuredParameter: IC50
measurementUnits: µM
boundType: >
quantitativeResult: 25
//
molecule: COCCOCCOCCNCCCN1c2ccccc2CCc2ccccc21
measuredParameter: IC50
measurementUnits: µM
boundType: =
quantitativeResult: 1.47
//
molecule: COCCOCCOCCOCCOCCOCCOCCN1CCN(C(c2ccccc2)c2ccc(Cl)cc2)CC1 (stereo not shown) [PEG-5-HZ, mPEG5-hydroxyzine]
measuredParameter: IC50
measurementUnits: µM
boundType: =
quantitativeResult: 11.5

###

Reported IC50 values follow for various molecules
target: CYP3A4 (Homo sapiens, UniProt P08684); assay: Microsomal inhibition study, inhibition of midazolam metabolism (Example 1); details: read-out: 3A4 Affinity (IC50), Table 2
Sequence (P08684 whole entry): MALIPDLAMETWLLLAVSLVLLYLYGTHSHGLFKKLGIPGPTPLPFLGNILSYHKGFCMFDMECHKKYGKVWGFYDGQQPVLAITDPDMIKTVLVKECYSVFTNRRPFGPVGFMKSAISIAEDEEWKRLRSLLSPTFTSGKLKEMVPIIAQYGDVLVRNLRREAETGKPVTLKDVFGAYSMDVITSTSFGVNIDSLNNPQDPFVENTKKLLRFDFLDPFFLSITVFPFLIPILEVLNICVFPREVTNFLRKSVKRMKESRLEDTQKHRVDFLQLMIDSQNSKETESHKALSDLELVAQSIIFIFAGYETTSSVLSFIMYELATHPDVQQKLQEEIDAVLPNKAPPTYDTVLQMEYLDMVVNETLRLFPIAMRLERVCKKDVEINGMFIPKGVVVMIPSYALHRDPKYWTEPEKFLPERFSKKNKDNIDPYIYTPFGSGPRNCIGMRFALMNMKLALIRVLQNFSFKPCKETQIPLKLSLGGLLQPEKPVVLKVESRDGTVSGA
measuredParameter: IC50 (µM)

molecule: COCCOCCOCCOCCOCCOCCOCCN1CCN(C(c2ccccc2)c2ccc(Cl)cc2)CC1 (centres unmarked) [PEG-5-HZ, mPEG5-hydroxyzine]
quantitativeResult: 15.4

molecule: COCCOCCOCCOCCOCCN1CCN(C(c2ccccc2)c2ccc(Cl)cc2)CC1 (centres unmarked) [PEG-3-HZ, mPEG3-hydroxyzine]
quantitativeResult: 17.8

###

// reported IC50 per item
molecular target: CYP2D6 (Homo sapiens, UniProt P10635); test: Microsomal inhibition study, inhibition of bufuralol metabolism (Example 1); conditions: read-out: 2D6 Affinity (IC50), Table 2

compound: COCCOCCOCCOCCOCCOCCOCCN1CCN(C(c2ccccc2)c2ccc(Cl)cc2)CC1 (centres unmarked) [PEG-5-HZ, mPEG5-hydroxyzine]
IC50: 11.7 µM
--
compound: COCCOCCOCCOCCOCCN1CCN(C(c2ccccc2)c2ccc(Cl)cc2)CC1 (centres unmarked) [PEG-3-HZ, mPEG3-hydroxyzine]
IC50: 10.3 µM
